System: Winterweizen
Assay: Field test of gametocidal activity (sterilisation of anthers), winter wheat
Type: in vivo
Conditions: Sorte Mironowskaja 808; V. Periode der Organogenese; 2%ige wäßrige Emulsion; 20 kg/ha

compound: O=C([O-])CCCCSCCCCC(=O)[O-].[Na+].[Na+]
assayed-target: Winterweizen
Prozentsatz der Sterilität: 99,3%

compound: O=C(O)CCCCSCCCCC(=O)O
assayed-target: Winterweizen
Prozentsatz der Sterilität: 98,8%

compound: O=C([O-])CCCCS(=O)(=O)CCCCC(=O)[O-].[Na+].[Na+]
assayed-target: Winterweizen
Prozentsatz der Sterilität: 99,8%

compound: CCCCC(CC)COC(=O)CCCCSCCCCC(=O)OCC(CC)CCCC (stereo not shown)
assayed-target: Winterweizen
Prozentsatz der Sterilität: 100,0%

compound: O=C([O-])CCCCS(=O)(=O)CCCCC(=O)[O-].[K+].[K+]
assayed-target: Winterweizen
Prozentsatz der Sterilität: 99,8%

compound: CCCCCCCCCCSCCCCC(=O)O
assayed-target: Winterweizen
Prozentsatz der Sterilität: 100,0%

compound: O=C(O)CCCCS(=O)(=O)CCCCC(=O)O
assayed-target: Winterweizen
Prozentsatz der Sterilität: 100,0%

----------
Some compounds, each annotated with its measured Prozentsatz der Sterilität.
Test system: Sommerweizen
Experiment: Field test of gametocidal activity (sterilisation of anthers), spring wheat
Type: in vivo
Details: Sorte Moskowskaja 35; V. Periode der Organogenese; 1%ige wäßrige Emulsion; 6 kg/ha

compound: CCCCC(CC)COC(=O)CCCCSCCCCC(=O)OCC(CC)CCCC (stereo not shown) [Beispiel 22]
assayed-target: Sommerweizen
Prozentsatz der Sterilität: 100,0%

compound: O=C(O)CCCCSCCCCC(=O)O [Beispiel 15, δ, δ' -Thiodivaleriansäure]
assayed-target: Sommerweizen
Prozentsatz der Sterilität: 97,0%

compound: O=C([O-])CCCCS(=O)(=O)CCCCC(=O)[O-].[K+].[K+] [Beispiel 19]
assayed-target: Sommerweizen
Prozentsatz der Sterilität: 99,0%

compound: O=C([O-])CCCCSCCCCC(=O)[O-].[Na+].[Na+] [Beispiel 16]
assayed-target: Sommerweizen
Prozentsatz der Sterilität: 97,0%

compound: CCCCCCCCCCSCCCCC(=O)O [Beispiel 21, 4-Karboxybutyldezylsulfid]
assayed-target: Sommerweizen
Prozentsatz der Sterilität: 100,0%

compound: O=C([O-])CCCCS(=O)(=O)CCCCC(=O)[O-].[Na+].[Na+] [Beispiel 18]
assayed-target: Sommerweizen
Prozentsatz der Sterilität: 99,0%

compound: O=C(O)CCCCS(=O)(=O)CCCCC(=O)O [Beispiel 17, δ, δ'--Sulfonyldivaleriansäure]
assayed-target: Sommerweizen
Prozentsatz der Sterilität: 100,0%

----------
Test system: Sommerweizen
Assay: Field test of gametocidal activity (sterilisation of anthers), spring wheat
Type: in vivo
Conditions: Sorte Moskowskaja 35; V. Periode der Organogenese; 1%ige wäßrige Emulsion; 6 kg/ha

molecule: CCCCCCCCCCSCCCCC(=O)O
assayed-target: Sommerweizen
Anzahl von Körnern der Ähre im Isolator: 0,0

molecule: O=C(O)CCCCS(=O)(=O)CCCCC(=O)O
assayed-target: Sommerweizen
Anzahl von Körnern der Ähre im Isolator: 0,0

molecule: O=C([O-])CCCCS(=O)(=O)CCCCC(=O)[O-].[Na+].[Na+]
assayed-target: Sommerweizen
Anzahl von Körnern der Ähre im Isolator: 0,3

molecule: O=C([O-])CCCCS(=O)(=O)CCCCC(=O)[O-].[K+].[K+]
assayed-target: Sommerweizen
Anzahl von Körnern der Ähre im Isolator: 0,3

molecule: O=C([O-])CCCCSCCCCC(=O)[O-].[Na+].[Na+]
assayed-target: Sommerweizen
Anzahl von Körnern der Ähre im Isolator: 0,9

molecule: CCCCC(CC)COC(=O)CCCCSCCCCC(=O)OCC(CC)CCCC (stereo not shown)
assayed-target: Sommerweizen
Anzahl von Körnern der Ähre im Isolator: 0,0

molecule: O=C(O)CCCCSCCCCC(=O)O
assayed-target: Sommerweizen
Anzahl von Körnern der Ähre im Isolator: 0,9
